The following compounds are listed with their measured IC50 values.
# Test system: MCF7
# assay_notes: Antiproliferative activity against human MCF7 cells after 72 hrs under hypoxic condition by MTT assay
# Format: functional, cell-based
# protocol_conditions: MCF7, 72 h

# example entries with known answers
[[record]]
structure_string = "CCOC(=O)c1oc2ccc(NS(=O)(=O)c3ccc(C(F)(F)F)cc3)cc2c1C"
value_kind = "IC50"
observed_result = "48.7 µM"

[[record]]
structure_string = "CCOC(=O)c1oc2ccc(NS(=O)(=O)c3cccc(Cl)c3)cc2c1C"
value_kind = "IC50"
observed_result = "83.9 µM"

[[record]]
structure_string = "CCOC(=O)c1oc2ccc(NS(=O)(=O)c3ccccc3C(F)(F)F)cc2c1C"
value_kind = "IC50"
observed_result = "93.9 µM"

[[record]]
structure_string = "CCOC(=O)c1oc2ccc(NS(=O)(=O)c3ccccc3C)cc2c1C"
value_kind = "IC50"
observed_result = "105 µM"

[[record]]
structure_string = "CCOC(=O)c1oc2ccc(NS(=O)(=O)c3cccc(Br)c3)cc2c1C"
value_kind = "IC50"
observed_result = "57 µM"


What the record says about CCOC(=O)c1oc2ccc(NS(=O)(=O)c3ccc(C)cc3)cc2c1C : IC50 is 53.9 µM

Form field IC50, entry CCOC(=O)c1oc2ccc(NS(=O)(=O)c3cccnc3)cc2c1C : > 200 µM

Measured IC50, CCOC(=O)c1oc2ccc(NS(=O)(=O)c3ccc(Cl)cc3)cc2c1C : 81.2 µM

Item: CCOC(=O)c1oc2ccc(NS(=O)(=O)c3cccc([N+](=O)[O-])c3)cc2c1C | IC50: 74.8 µM

###

# system: Hypoxia-inducible factor 1-alpha (Homo sapiens, UniProt Q16665)
# Sequence (Q16665 whole entry): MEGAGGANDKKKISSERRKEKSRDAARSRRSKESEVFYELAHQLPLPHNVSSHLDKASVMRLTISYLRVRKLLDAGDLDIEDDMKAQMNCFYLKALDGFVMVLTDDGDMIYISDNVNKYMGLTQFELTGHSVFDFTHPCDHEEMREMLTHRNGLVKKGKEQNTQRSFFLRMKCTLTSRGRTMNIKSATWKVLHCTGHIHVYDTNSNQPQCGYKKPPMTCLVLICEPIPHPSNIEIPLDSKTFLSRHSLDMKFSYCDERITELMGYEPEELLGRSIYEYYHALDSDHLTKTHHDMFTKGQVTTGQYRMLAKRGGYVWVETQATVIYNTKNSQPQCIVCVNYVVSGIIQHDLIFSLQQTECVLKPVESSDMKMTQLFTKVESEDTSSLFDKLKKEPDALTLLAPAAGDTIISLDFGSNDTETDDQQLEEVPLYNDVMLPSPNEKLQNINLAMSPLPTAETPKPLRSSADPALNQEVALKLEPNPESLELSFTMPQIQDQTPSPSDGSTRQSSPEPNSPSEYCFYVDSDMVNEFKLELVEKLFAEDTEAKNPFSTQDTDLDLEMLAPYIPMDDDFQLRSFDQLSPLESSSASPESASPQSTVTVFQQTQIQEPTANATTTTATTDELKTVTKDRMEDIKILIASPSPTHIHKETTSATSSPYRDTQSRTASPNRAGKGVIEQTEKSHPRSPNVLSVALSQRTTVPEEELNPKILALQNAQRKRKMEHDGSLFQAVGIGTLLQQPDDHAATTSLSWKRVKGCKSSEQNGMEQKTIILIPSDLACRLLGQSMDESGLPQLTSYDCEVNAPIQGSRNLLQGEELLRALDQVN
# assay_notes: Inhibition of HIF-1alpha (unknown origin) transcriptional activity expressed in human MCF7 cells after 24 hrs under hypoxic condition by HRE luciferase reporter gene assay
# Format: cell-based
value_kind: IC50 (µM)
Entry rule: numbers only, all in µM.

Recorded IC50, per entry:
[[record]]
structure_string = "CCOC(=O)c1oc2ccc(NS(=O)(=O)c3ccc4ccccc4c3)cc2c1C"
value_kind = "IC50"
observed_result = 22.6

[[record]]
structure_string = "CCOC(=O)c1oc2ccc(NS(=O)(=O)c3ccc(C(F)(F)F)cc3)cc2c1C"
value_kind = "IC50"
observed_result = 41.7


Just so you know, measured IC50 for CCOC(=O)c1oc2ccc(NS(=O)(=O)c3cc(OC)ccc3OC)cc2c1C came out at 15.5

In plain terms, CCOC(=O)c1oc2ccc(NS(=O)(=O)c3ccccc3C(F)(F)F)cc2c1C has a documented IC50 of 16.5

What the record says about CCOC(=O)c1oc2ccc(NS(=O)(=O)c3ccccc3C)cc2c1C : IC50 is 19.4

Sure, the documented IC50 for CCOC(=O)c1oc2ccc(NS(=O)(=O)c3ccccc3[N+](=O)[O-])cc2c1C is 24.4

CCOC(=O)c1oc2ccc(NS(=O)(=O)c3cccc(Cl)c3)cc2c1C has a reported IC50 of 36.6

Lab note: CCOC(=O)c1oc2ccc(NS(=O)(=O)c3ccccc3Br)cc2c1C gave IC50 of 19.9

###

# System: MDA-MB-468
# assay_notes: Antiproliferative activity against human MDA-MB-468 cells after 72 hrs under hypoxic condition by MTT assay
# Type: functional, cell-based
# protocol_conditions: MDA-MB-468, 72 h
value_kind: IC50 (µM)
Give the value in µM but do not write µM after it.

Some solved cases for reference:
[[record]]
structure_string = "CCOC(=O)c1oc2ccc(NS(=O)(=O)c3ccc(C(C)(C)C)cc3)cc2c1C"
observed_result = 8.1

[[record]]
structure_string = "CCOC(=O)c1oc2ccc(NS(=O)(=O)c3ccc4ccccc4c3)cc2c1C"
observed_result = 15.7

[[record]]
structure_string = "CCOC(=O)c1oc2ccc(NS(=O)(=O)c3cccnc3)cc2c1C"
observed_result = 62.9

[[record]]
structure_string = "CCOC(=O)c1oc2ccc(NS(=O)(=O)c3ccc(Br)cc3)cc2c1C"
observed_result = 26.4


Sample CCOC(=O)c1oc2ccc(NS(=O)(=O)c3ccccc3[N+](=O)[O-])cc2c1C ; IC50 observed: 96.9

Reported IC50 for CCOC(=O)c1oc2ccc(NS(=O)(=O)c3ccc(Cl)cc3)cc2c1C was 44

Reported IC50 ( CCOC(=O)c1oc2ccc(NS(=O)(=O)c3ccc(C)cc3)cc2c1C ) = 24

###

# Tested on: MCF7
# assay_notes: Cytotoxicity against human MCF7 cells harboring HRE-driven luciferase gene
# Assay type: cell-based
value_kind: Activity

Worked cases, answers included:
[[record]]
structure_string = "CCOC(=O)c1oc2ccc(NS(=O)(=O)c3ccc4ccccc4c3)cc2c1C"
value_kind = "Activity"
observed_result = "Non-Toxic"

[[record]]
structure_string = "CCOC(=O)c1oc2ccc(NS(=O)(=O)c3cccc(C)c3)cc2c1C"
value_kind = "Activity"
observed_result = "Non-Toxic"

[[record]]
structure_string = "CCOC(=O)c1oc2ccc(NS(=O)(=O)c3cccc(Br)c3)cc2c1C"
value_kind = "Activity"
observed_result = "Non-Toxic"

[[record]]
structure_string = "CCOC(=O)c1oc2ccc(NS(=O)(=O)c3ccc(C)cc3)cc2c1C"
value_kind = "Activity"
observed_result = "Non-Toxic"


Activity value, target or system MCF7, for CCOC(=O)c1oc2ccc(NS(=O)(=O)c3cccnc3)cc2c1C : Non-Toxic

Reported MCF7 Activity for item CCOC(=O)c1oc2ccc(NS(=O)(=O)c3ccccc3Cl)cc2c1C was Non-Toxic

Form field, Activity with MCF7, item CCOC(=O)c1oc2ccc(NS(=O)(=O)c3ccccc3[N+](=O)[O-])cc2c1C : Non-Toxic

Entry CCOC(=O)c1oc2ccc(NS(=O)(=O)c3ccccc3C)cc2c1C ; assay system MCF7; Activity recorded at Non-Toxic

Fill in: MCF7 Activity for CCOC(=O)c1oc2ccc(NS(=O)(=O)c3ccccc3C(F)(F)F)cc2c1C = Non-Toxic

Log: MCF7, molecule CCOC(=O)c1oc2ccc(NS(=O)(=O)c3cccc(Cl)c3)cc2c1C , Activity = Non-Toxic

Lab entry: MCF7 assay, molecule CCOC(=O)c1oc2ccc(NS(=O)(=O)c3ccc(C(F)(F)F)cc3)cc2c1C , Activity = Non-Toxic

###

# Tested on: MDA-MB-468
# assay_notes: Antiproliferative activity against human MDA-MB-468 cells after 72 hrs under hypoxic condition by MTT assay
# Format: functional, cell-based
# protocol_conditions: MDA-MB-468, 72 h
Rule: IC50 below 30 µM gives fulfilled, anything at or above gives not fulfilled.

[[record]]
structure_string = "CCOC(=O)c1oc2ccc(NS(=O)(=O)c3ccccc3Cl)cc2c1C"
classification = "not fulfilled"

[[record]]
structure_string = "CCOC(=O)c1oc2ccc(NS(=O)(=O)c3cc(OC)ccc3OC)cc2c1C"
classification = "fulfilled"

[[record]]
structure_string = "CCOC(=O)c1oc2ccc(NS(=O)(=O)c3ccc([N+](=O)[O-])cc3)cc2c1C"
classification = "fulfilled"

[[record]]
structure_string = "CCOC(=O)c1oc2ccc(NS(=O)(=O)c3ccccc3C(F)(F)F)cc2c1C"
classification = "not fulfilled"

[[record]]
structure_string = "CCOC(=O)c1oc2ccc(NS(=O)(=O)c3cccs3)cc2c1C"
classification = "not fulfilled"


query: Problem: For the compound CCOC(=O)c1oc2ccc(NS(=O)(=O)c3ccccc3C)cc2c1C , is IC50 under 30 µM?
result: not fulfilled

query: Just wondering, is IC50 of CCOC(=O)c1oc2ccc(NS(=O)(=O)c3ccccc3Br)cc2c1C below 30 µM?
result: not fulfilled

query: Answer whether the compound CCOC(=O)c1oc2ccc(NS(=O)(=O)c3cccc(Cl)c3)cc2c1C has IC50 strictly less than 30 µM
result: not fulfilled

query: A record lists CCOC(=O)c1oc2ccc(NS(=O)(=O)c3cccc(C(F)(F)F)c3)cc2c1C . Is its IC50 below 30 µM?
result: fulfilled

###

# system: Hypoxia-inducible factor 1-alpha (Homo sapiens)
# assay_notes: Inhibition of HIF-1alpha transcriptional activity in human MCF7 cells assessed as reduction in VEGF secretion after 24 hrs under hypoxic condition by ELISA
# Type: cell-based
value_kind: IC50
Answer format: number, then unit.

Lab note: measured IC50 of CCOC(=O)c1oc2ccc(NS(=O)(=O)c3ccc(OC)c(OC)c3)cc2c1C was 18.8 µM

###

# Test system: MCF7
# assay_notes: Antiproliferative activity against human MCF7 cells after 72 hrs under hypoxic condition by MTT assay
# Format: functional, cell-based
# protocol_conditions: MCF7, 72 h
Binarize IC50 at 50 µM; below is Yes, at or above is No.

[[record]]
structure_string = "CCOC(=O)c1oc2ccc(NS(=O)(=O)c3ccccc3Cl)cc2c1C"
system = "MCF7"
classification = "No"

[[record]]
structure_string = "CCOC(=O)c1oc2ccc(NS(=O)(=O)c3cccs3)cc2c1C"
system = "MCF7"
classification = "No"

[[record]]
structure_string = "CCOC(=O)c1oc2ccc(NS(=O)(=O)c3ccc(Br)cc3)cc2c1C"
system = "MCF7"
classification = "No"

[[record]]
structure_string = "CCOC(=O)c1oc2ccc(NS(=O)(=O)c3ccc(C(C)(C)C)cc3)cc2c1C"
system = "MCF7"
classification = "Yes"

[[record]]
structure_string = "CCOC(=O)c1oc2ccc(NS(=O)(=O)c3ccccc3Br)cc2c1C"
system = "MCF7"
classification = "No"


query: Consider the compound CCOC(=O)c1oc2ccc(NS(=O)(=O)c3cc(OC)ccc3OC)cc2c1C . Is its IC50 strictly less than 50 µM?
result: No

query: Find out if reported IC50 for CCOC(=O)c1oc2ccc(NS(=O)(=O)c3cccc(C)c3)cc2c1C is less than 50 µM
result: No

query: Hello, is IC50 of the following compound strictly smaller than 50 µM? CCOC(=O)c1oc2ccc(NS(=O)(=O)c3ccc(OC)c(OC)c3)cc2c1C
result: No

query: Strictly below 50 µM in IC50? CCOC(=O)c1oc2ccc(NS(=O)(=O)c3ccc4ccccc4c3)cc2c1C
result: Yes

query: Strictly below 50 µM: is that where IC50 of CCOC(=O)c1oc2ccc(NS(=O)(=O)c3ccc([N+](=O)[O-])cc3)cc2c1C sits?
result: No

query: Does the reported IC50 of CCOC(=O)c1oc2ccc(NS(=O)(=O)c3ccccc3[N+](=O)[O-])cc2c1C stay below 50 µM?
result: No
